TEST: Drug concentration at steady state in patient with possible depletion of intravascular volume at 25 mg, po QD after 24 hrs
Assay type: ADME, organism-based
CONDITION_LABEL: human, in vivo, read-out: Css
ENDPOINT_LABEL: concentration at 24 h (nM)

INSERT INTO measurements (compound, number) VALUES
  ('CCCCc1nc(Cl)c(CO)n1Cc1ccc(-c2ccccc2-c2nnn[n-]2)cc1.[K+] [LOSARTAN POTASSIUM]', 101);

* * *

The entries below are paired with their reported pIC50.
SYSTEM_UNDER_TEST: Bile salt export pump (Homo sapiens)
Sequence (O95342 whole entry): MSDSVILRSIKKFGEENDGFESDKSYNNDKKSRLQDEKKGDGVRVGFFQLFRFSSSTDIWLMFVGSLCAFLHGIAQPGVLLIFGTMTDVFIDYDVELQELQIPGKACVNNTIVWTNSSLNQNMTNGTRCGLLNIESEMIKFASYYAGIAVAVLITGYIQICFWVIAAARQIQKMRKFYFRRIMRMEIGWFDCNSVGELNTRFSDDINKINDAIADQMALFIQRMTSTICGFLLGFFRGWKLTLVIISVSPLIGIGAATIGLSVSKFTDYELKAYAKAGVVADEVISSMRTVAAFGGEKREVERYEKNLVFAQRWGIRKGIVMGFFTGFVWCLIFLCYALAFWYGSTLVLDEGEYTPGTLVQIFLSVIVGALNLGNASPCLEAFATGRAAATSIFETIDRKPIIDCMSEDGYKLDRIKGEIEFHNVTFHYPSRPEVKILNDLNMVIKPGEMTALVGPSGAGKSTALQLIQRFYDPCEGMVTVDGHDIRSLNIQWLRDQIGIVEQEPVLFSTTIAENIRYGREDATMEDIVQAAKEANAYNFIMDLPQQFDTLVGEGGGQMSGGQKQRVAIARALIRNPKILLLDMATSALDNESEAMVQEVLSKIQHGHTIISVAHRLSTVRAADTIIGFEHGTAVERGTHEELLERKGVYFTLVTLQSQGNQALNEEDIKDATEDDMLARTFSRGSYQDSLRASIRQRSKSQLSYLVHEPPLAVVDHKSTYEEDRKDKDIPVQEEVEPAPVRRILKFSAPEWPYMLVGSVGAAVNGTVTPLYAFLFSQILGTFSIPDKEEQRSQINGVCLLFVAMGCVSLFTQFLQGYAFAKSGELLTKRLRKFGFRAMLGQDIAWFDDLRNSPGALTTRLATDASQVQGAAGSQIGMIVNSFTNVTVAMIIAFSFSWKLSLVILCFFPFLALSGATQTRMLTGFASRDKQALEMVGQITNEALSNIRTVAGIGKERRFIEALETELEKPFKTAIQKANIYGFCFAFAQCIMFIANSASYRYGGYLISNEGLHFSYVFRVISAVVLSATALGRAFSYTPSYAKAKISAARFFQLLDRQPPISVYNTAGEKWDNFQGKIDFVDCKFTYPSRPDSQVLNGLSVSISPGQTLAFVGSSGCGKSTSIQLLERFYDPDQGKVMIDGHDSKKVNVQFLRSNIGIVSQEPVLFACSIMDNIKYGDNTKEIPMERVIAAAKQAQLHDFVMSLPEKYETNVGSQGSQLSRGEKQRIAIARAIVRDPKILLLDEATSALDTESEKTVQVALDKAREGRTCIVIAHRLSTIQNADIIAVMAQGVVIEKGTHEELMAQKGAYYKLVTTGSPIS
TEST: Inhibition of human BSEP overexpressed in Sf9 cell membrane vesicles assessed as uptake of [3H]-taurocholate in presence of ATP measured after 15 to 20 mins by membrane vesicle transport assay
pIC50: −log10 of the molar value. Counter-ions that a name gives are not always drawn.
ENDPOINT_LABEL: pIC50

INSERT INTO assay_data (compound, result) VALUES
  ('CO/N=C(\C(=O)N[C@@H]1C(=O)N2C(C(=O)OC(C)OC(C)=O)=C(COC(N)=O)CS[C@H]12)c1ccco1 (stereo partly drawn) [CEFUROXIME AXETIL]', '< 3.88'),
  ('O=C(O[C@@H]1C[C@@H]2C[C@H]3C[C@H](C1)N2CC3=O)c1c[nH]c2ccccc12', '< 3.88'),
  ('COC[C@@H](NC(C)=O)C(=O)NCc1ccccc1 [LACOSAMIDE]', '< 3.88'),
  ('COc1cc2nc(N3CCN(C(=O)C4CCCO4)CC3)nc(N)c2cc1OC (stereo not drawn) [TERAZOSIN]', '< 3.88'),
  ('CCOC(=O)[C@H](CCc1ccccc1)N[C@@H](C)C(=O)N1Cc2ccccc2C[C@H]1C(=O)O', 4.03),
  ('COc1ccc2cc1Oc1cc3c(cc1OC)CC[N+](C)(C)[C@H]3Cc1ccc(cc1)Oc1c(OC)c(OC)cc3c1[C@@H](C2)[N+](C)(C)CC3 [METOCURINE]', '< 3.88'),
  ('Nc1nc(N)c2nc(-c3ccccc3)c(N)nc2n1', '< 3.88'),
  ('COc1ccc(Cc2nccc3cc(OC)c(OC)cc23)cc1OC [PAPAVERINE]', '< 3.88'),
  ('Oc1ccc(C2CNCCc3c2cc(O)c(O)c3Cl)cc1 (stereo not drawn) [FENOLDOPAM MESYLATE]', '< 3.88'),
  ('Cc1cccc(Nc2cc(Cl)nc(SCC(=O)O)n2)c1C [PIRINIXIC ACID]', 4.00),
  ('CCCCN1CCCCC1C(=O)Nc1c(C)cccc1C (stereo not drawn) [BUPIVACAINE HYDROCHLORIDE]', '< 3.88'),
  ('CC(C)(C)C(=O)OCOP(=O)(COCCn1cnc2c(N)ncnc21)OCOC(=O)C(C)(C)C [ADEFOVIR DIPIVOXIL]', 4.34),
  ('COc1ccccc1N1CCN(CCCNc2cc(=O)n(C)c(=O)n2C)CC1', '< 3.88'),
  ('CC(C)C(=O)Nc1ccc([N+](=O)[O-])c(C(F)(F)F)c1 [FLUTAMIDE]', '< 3.88'),
  ('C=CCN1C[C@H](C(=O)N(CCCN(C)C)C(=O)NCC)C[C@@H]2c3cccc4[nH]cc(c34)C[C@H]21 [CABERGOLINE]', '< 3.88'),
  ('CCOc1cc(CC(=O)N[C@@H](CC(C)C)c2ccccc2N2CCCCC2)ccc1C(=O)O [REPAGLINIDE]', 4.66),
  ('CC(=O)Oc1ccccc1C(=O)O [ASPIRIN]', '< 3.88'),
  ('CC(=O)Nc1ccc(O)cc1 [ACETAMINOPHEN]', '< 3.88');
